# System: IGROV1 ovarian
# METHOD NOTES: NCI tumour cell line growth inhibition, 48 h; in the data active means GI50 below about 0.43 µM; inactive means the rest
Outcomes you can answer with include only these: active, inactive

Example cases with answers are listed next.
Q: Entry `O=C(C[P+](c1ccccc1)(c1ccccc1)c1ccccc1)C[P+](c1ccccc1)(c1ccccc1)c1ccccc1` : call = ?
A: inactive

Q: Entry `Cc1cc(Nc2cc(N3CCN(C)CC3)nc(Sc3ccc(NC(=O)C4CC4)cc3)n2)n[nH]1` : call = ?
A: inactive

Q: Entry CC1=C(C)C2(O)C(=C(C)C1=O)/C(=C(/O)c1ccccc1)c1nc3ccccc3n12 (centres undefined) : call = ?
A: inactive

Q: Entry `CN1CCN(Cc2ccc3c(NNC(=O)c4ccccc4)nc4cc(F)ccc4n23)CC1` : call = ?
A: inactive

Q: Entry `O=c1oc2ccc(-c3ccc(F)cc3F)cc2c(=O)n1-c1ccc(Cl)c(C(F)(F)F)c1` : call = ?
A: inactive

Q: Entry `COc1cc(-n2ccnc2)cc(OC)c1OC` : call = ?
A: inactive

Others:
Q: Entry `COc1cc(/C=C/c2cc(/C=C/c3ccc(O)c(OC)c3)n(C(=O)Nc3ccc(Cl)cc3)n2)ccc1O` : call = ?
A: inactive

Q: Entry O=C(c1ccccc1)n1c(-c2ccccc2)cs/c1=N\S(=O)(=O)c1ccc(N2N=C3c4ccccc4CC3C2c2cccs2)cc1 (centres undefined) : call = ?
A: inactive

Q: Entry `N#CN1CC[C@H](C(=O)Nc2cc3cc(C(N)=O)ccc3cn2)C1` : call = ?
A: active
